# Organism: Rattus norvegicus
# Assay Remarks: Open TG-GATES - Regimen: Single
# Type: toxicity, organism-based, Sprague-Dawley
# Set-up: regimen Single, gender Male, age 6 weeks
# Condition: in vivo, po, 300 mg/kg, 24 h, tissue Plasma, route gavage, dose level Middle
Task for the reader: assign each of the following molecules its reported ALP.

The reported ALP of the molecule `CN/C(=N/CCSCc1nc[nH]c1C)NC#N` was 1056 IU/L

The reported ALP of the molecule `CNC(=C[N+](=O)[O-])NCCSCc1ccc(CN(C)C)o1` was 1036.4 IU/L

The reported ALP of the molecule `Cc1nnc2n1-c1ccc(Cl)cc1C(c1ccccc1Cl)=NC2` was 1802.4 IU/L

The reported ALP of the molecule `COC(=O)C1=C(C)NC(C)=C(C(=O)OC)C1c1ccccc1[N+](=O)[O-]` was 1579.6 IU/L

The reported ALP of the molecule `O=C(OC[C@H]1O[C@@H](OC(=O)c2cc(O)c(O)c(OC(=O)c3cc(O)c(O)c(O)c3)c2)[C@H](OC(=O)c2cc(O)c(O)c(OC(=O)c3cc(O)c(O)c(O)c3)c2)[C@@H](OC(=O)c2cc(O)c(O)c(OC(=O)c3cc(O)c(O)c(O)c3)c2)[C@@H]1OC(=O)c1cc(O)c(O)c(OC(=O)c2cc(O)c(O)c(O)c2)c1)c1cc(O)c(O)c(OC(=O)c2cc(O)c(O)c(O)c2)c1` was 852.4 IU/L

====

Task for the reader: assign each of the following compounds its reported Neu.
# Species: Rattus norvegicus
# Assay Remarks: Open TG-GATES - Regimen: Single
# Format: toxicity, organism-based, Sprague-Dawley
# Parameters: regimen Single, gender Male, age 6 weeks
# Condition: in vivo, po, 0 mg/kg, 6 h, tissue Blood, route gavage, dose level Control
# output: bare number, implied unit %

The reported Neu of the compound Nc1c2c(nc3ccccc13)CCCC2 [TACRINE] was 16

The reported Neu of the compound CN/C(=N/CCSCc1nc[nH]c1C)NC#N [CIMETIDINE] was 18.8

The reported Neu of the compound COC(=O)C1=C(C)NC(C)=C(C(=O)OC)C1c1ccccc1[N+](=O)[O-] [NIFEDIPINE] was 23.6

The reported Neu of the compound CN(C)CCC(c1ccc(Cl)cc1)c1ccccn1 (configuration not stated) [CHLORPHENIRAMINE] was 18.8

The reported Neu of the compound Brc1ccccc1 [BROMOBENZENE] was 19.2

The reported Neu of the compound CCOc1ccc(NC(C)=O)cc1 [PHENACETIN] was 19.4

The reported Neu of the compound CC(C)NNC(=O)c1ccncc1 [IPRONIAZID] was 16.6

====

# Organism: Rattus norvegicus
# Assay Remarks: Open TG-GATES - Regimen: Single
# Assay type: toxicity, organism-based, Sprague-Dawley
# Parameters: regimen Single, gender Male, age 6 weeks
# Condition: in vivo, po, 0 mg/kg, 24 h, tissue Plasma, route gavage, dose level Control
Task for the reader: assign each of the following compounds its reported TC.
# output: bare number, implied unit mg/dL

The reported TC of the compound NC1=NC(=O)C(c2ccccc2)O1 (stereo unspecified) [PEMOLINE] was 82.6

The reported TC of the compound Nc1c2c(nc3ccccc13)CCCC2 [TACRINE] was 79.8

The reported TC of the compound CN(C)CCC(c1ccc(Cl)cc1)c1ccccn1 (stereo unspecified) [CHLORPHENIRAMINE] was 85

The reported TC of the compound Cc1nnc2n1-c1ccc(Cl)cc1C(c1ccccc1Cl)=NC2 [TRIAZOLAM] was 77.4

The reported TC of the compound CN/C(=N/CCSCc1nc[nH]c1C)NC#N [CIMETIDINE] was 79.8

The reported TC of the compound Brc1ccccc1 [BROMOBENZENE] was 76.8
